Target: hMCHR (MCH receptor) (Homo sapiens, UniProt Q99705)
Construct: (or internally produced); host or cells: CHO (Chinese hamster ovary) cells, membrane preparation
Sequence (Q99705 whole entry): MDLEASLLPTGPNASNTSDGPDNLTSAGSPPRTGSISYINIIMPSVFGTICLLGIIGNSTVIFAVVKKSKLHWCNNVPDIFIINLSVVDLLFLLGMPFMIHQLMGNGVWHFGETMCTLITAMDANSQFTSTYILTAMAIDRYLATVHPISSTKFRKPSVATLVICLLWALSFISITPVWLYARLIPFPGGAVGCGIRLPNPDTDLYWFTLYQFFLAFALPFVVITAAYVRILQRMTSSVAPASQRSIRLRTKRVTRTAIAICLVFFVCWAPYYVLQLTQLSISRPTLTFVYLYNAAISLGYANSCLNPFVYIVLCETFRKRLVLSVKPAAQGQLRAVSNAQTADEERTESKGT
Experiment: MCH Assay PCOP Protocol ([125I]-MCH SPA binding to hMCHR-CHO membranes)
Settings: [125I]-MCH 0.5 nM, hMCHR-CHO membranes; read-out: Activity (ranges of Ki values)
OUTCOME MEASURE: Ki

Look over these answered cases.
# COMPOUND, Ki
measured = [
    ("CC(=O)NC1CCN(CCC(CNC(=O)Nc2cc(Cl)cc(Cl)c2)c2ccc(Cl)c(Cl)c2)C1 (centres unmarked)", "501 to 2500 nM"),
    ("CN(C)CCC(OC(=O)Nc1cc(Cl)cc(Cl)c1)c1ccc(-c2cccnc2)cc1 (centres unmarked)", "501 to 2500 nM"),
    ("O=C(NCC(CCNC1CCCC1)c1cccc(-c2ccc(Cl)cc2)c1)Nc1cc(Cl)cc(Cl)c1 (centres unmarked)", "51 to 500 nM"),
    ("CN(C)CCCNCCC(C)(CNC(=O)Nc1ccc(F)c([N+](=O)[O-])c1)c1ccc(Cl)c(Cl)c1 (centres unmarked)", "501 to 2500 nM"),
    ("O=C(NCC(CCN1CCC(NC(=O)c2cccs2)CC1)c1ccc(Cl)c(Cl)c1)Nc1cc(Cl)cc(Cl)c1 (centres unmarked)", "501 to 2500 nM"),
    ("N#Cc1cccc(-c2ccc(C(CCNC3CC3)CNC(=O)Nc3cc(Cl)cc(Cl)c3)cc2)c1 (centres unmarked)", "0.4 to 50 nM"),
    ("O=C(NCC(CCNC1CCCC1)c1ccc(-c2cc[n+]([O-])cc2)cc1)Nc1cc(Cl)cc(Cl)c1 (centres unmarked)", "0.4 to 50 nM"),
]

Moving on to another compound below.
Value of Ki reported for the compound CN(C)CCCNCCC(CNC(=O)Nc1cc(Cl)cc(Cl)c1)c1cccc(-c2ccc(F)cc2)c1 (centres unmarked) is 501 to 2500 nM

====

Entries and their pKi
Molecular target: hMCHR (MCH receptor) (Homo sapiens, UniProt Q99705)
Construct: (or internally produced); host or cells: CHO (Chinese hamster ovary) cells, membrane preparation
Assay: MCH Assay PCOP Protocol ([125I]-MCH SPA binding to hMCHR-CHO membranes)
Conditions: [125I]-MCH 0.5 nM, hMCHR-CHO membranes; read-out: Activity (ranges of Ki values)
pKi: −log10 of the molar value.

Look over these answered cases.
# COMPOUND, TARGET UNDER TEST, pKi
measured = [
    ("O=C(NCC(CCN1CCC(NC(=O)c2cccs2)C1)c1ccc(Cl)cc1)Nc1cc(Cl)cc(Cl)c1 (centres unmarked) [Example 183]", "hMCHR (MCH receptor) (Homo sapiens, UniProt Q99705)", "6.30 to 7.29"),
    ("CN(C)CCCNCCC(CNC(=O)Nc1cc(Cl)cc(Cl)c1)c1cccc(-c2ccccc2)c1 (centres unmarked) [Example 171]", "hMCHR (MCH receptor) (Homo sapiens, UniProt Q99705)", "5.60 to 6.30"),
    ("COCCNCCC(CNC(=O)Nc1cc(Cl)cc(Cl)c1)c1ccc(-c2cccc(C#N)c2)cc1 (centres unmarked) [Example 72]", "hMCHR (MCH receptor) (Homo sapiens, UniProt Q99705)", "7.30 to 9.40"),
    ("COc1cccc(NC(=O)NCC(CCN(C)C)c2ccc(-c3cccc(C#N)c3)cc2)c1 (centres unmarked) [Example 63]", "hMCHR (MCH receptor) (Homo sapiens, UniProt Q99705)", "7.30 to 9.40"),
    ("N#Cc1cccc(-c2cccc(C(CCNC3CCCC3)CNC(=O)Nc3cc(Cl)cc(Cl)c3)c2)c1 (centres unmarked) [Example 149]", "hMCHR (MCH receptor) (Homo sapiens, UniProt Q99705)", "6.30 to 7.29"),
]

Value of pKi reported for the compound CN(C)CCCNCCC(CNC(=O)Nc1cc(Cl)cc(Cl)c1)c1cccc(-c2cccnc2)c1 (centres unmarked) [Example 172] is 5.60 to 6.30

Value of pKi reported for the compound COc1ccc(-c2cccc(C(CCNCCCN(C)C)CNC(=O)Nc3cc(Cl)cc(Cl)c3)c2)cc1 (centres unmarked) [Example 154] is 6.30 to 7.29

Value of pKi reported for the compound COc1cscc1C(=O)NC1CCN(CCC(CNC(=O)Nc2cc(Cl)cc(Cl)c2)c2ccc(Cl)cc2)C1 (centres unmarked) [Example 197] is 6.30 to 7.29
